Entries and their relative binding affinity
Molecular target: T1, human CD81 mutant V135L (human, UniProt P60033 1-236, limits assumed)
T1 construct: as m30; not shown: C-terminal V5 and 6xHis tags
T1 sequence: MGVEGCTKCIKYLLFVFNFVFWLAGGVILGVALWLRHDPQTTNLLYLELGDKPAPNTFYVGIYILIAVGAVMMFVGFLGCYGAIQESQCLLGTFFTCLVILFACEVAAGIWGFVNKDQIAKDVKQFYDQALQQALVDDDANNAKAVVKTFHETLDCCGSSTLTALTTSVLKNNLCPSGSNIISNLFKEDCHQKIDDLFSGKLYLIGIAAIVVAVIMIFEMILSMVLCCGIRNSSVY
Assay: ELISA

{"binder": "003-F08 (antibody, human IgG4 S228P, lambda, V domains shown, IgG4 S228P) VH: EVQLLESGGGLVQPGGSLRLSCAASGFTFSSNYMSWVRQAPGKGPEWVSYISSSSTYADYADSVKGRFTISRDNSKNTLYLQMNSLRAEDTAVYYCARYSYGRDNFDYWGQGTLVTVSS VL: QSVLTQPSSASGTPGQRVTISCTGSTSNIGAGYDTHWYQQLPGTAPKLLIYGNSNRPSGVPDRFSGSKSGTSASLAISGLRSEDEADYYCQSYDTNLSAWVFGGGTKLTVLG", "experimentalEndpoint": "relative binding affinity", "experimentalResult": "< 20%"}
{"binder": "002-A07 N113S (antibody, human IgG4 S228P, lambda, V domains shown, IgG4 S228P; glycosylation site mutant of 002-A07 VL) VH: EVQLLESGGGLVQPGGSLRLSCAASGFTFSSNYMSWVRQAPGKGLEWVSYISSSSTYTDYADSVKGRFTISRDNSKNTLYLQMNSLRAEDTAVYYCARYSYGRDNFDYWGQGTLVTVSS VL: QSVLTQPPSASGTPGQRVTISCTGSTSNIGAGYDTHWYQQLPGTAPKLLIYGNSNRPSGVPDRFSGSKSGTSASLAISGLRSEDEADYYCQSYDTSLSVWVFGGGTKLTVLG", "experimentalEndpoint": "relative binding affinity", "experimentalResult": "< 20%"}

Read the next record carefully.
stdin: Query: relative binding affinity; subject: 003-D07 (antibody, human IgG4 S228P, lambda, V domains shown, IgG4 S228P) VH: EVQLLESGGGLVQPGGSLRLSCAASGFTFSSNYMSWVRQAPGKGLEWVSYISSSSTYTDYADSVKGRFTISRDNSKNTLYLQMNSLRAEDTAVYYCARYSYDRDNFDYWGQGTLVTVSS VL: QSVLTQPFSASGTPGQRVTISCTGSTSNIGAGYDTHWYQHLPGTAPKLLIYGNSNRPSGVPDRFSGSKSGTSASLAISGLRSEDEADYYCQSYDTNLSVWVFGGGTKLTVLG
stdout: < 20%
